Measured self-cleavage kobs at 10000 uM GlcN6P values are reported for all entries that follow.
B1: glmS ribozyme (parent)
chain: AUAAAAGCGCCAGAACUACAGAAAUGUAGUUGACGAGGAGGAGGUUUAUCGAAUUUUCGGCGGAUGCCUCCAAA

variants of: B1; experiment: self-cleavage kobs at 10000 uM GlcN6P; higher = faster cleavage; RNA array; conditions: with glucosamine-6-phosphate
Variants at the floor of the assay were thinned out.

- Mutation Notation: "A42U C71G"
  Result Operator: "="
  self-cleavage kobs at 10000 uM GlcN6P (s⁻¹): "3.51e-05"
- Mutation Notation: "G44C U49G"
  Result Operator: "<"
  self-cleavage kobs at 10000 uM GlcN6P (s⁻¹): "1e-05"
- Mutation Notation: "U31G G66A"
  Result Operator: "="
  self-cleavage kobs at 10000 uM GlcN6P (s⁻¹): 0.00839
- Mutation Notation: "A33C U46C"
  Result Operator: "="
  self-cleavage kobs at 10000 uM GlcN6P (s⁻¹): "4.16e-05"
- Mutation Notation: "G43A G59A A64U"
  Result Operator: "<"
  self-cleavage kobs at 10000 uM GlcN6P (s⁻¹): "1e-05"
- Mutation Notation: "A52U U54A"
  Result Operator: "="
  self-cleavage kobs at 10000 uM GlcN6P (s⁻¹): 0.000172
- Mutation Notation: "G32U U46C G51U"
  Result Operator: "<"
  self-cleavage kobs at 10000 uM GlcN6P (s⁻¹): "1e-05"
- Mutation Notation: "U57C G60U"
  Result Operator: "<"
  self-cleavage kobs at 10000 uM GlcN6P (s⁻¹): "1e-05"
- Mutation Notation: "G7C C50G C61A"
  Result Operator: "="
  self-cleavage kobs at 10000 uM GlcN6P (s⁻¹): "4e-05"
- Mutation Notation: "G41C G43U"
  Result Operator: "<"
  self-cleavage kobs at 10000 uM GlcN6P (s⁻¹): "1e-05"
- Mutation Notation: "A6C U31C U45A U57G"
  Result Operator: "<"
  self-cleavage kobs at 10000 uM GlcN6P (s⁻¹): "1e-05"
- Mutation Notation: "A53U U55C"
  Result Operator: "="
  self-cleavage kobs at 10000 uM GlcN6P (s⁻¹): 0.0266
- Mutation Notation: "C10G A42C U69G"
  Result Operator: "<"
  self-cleavage kobs at 10000 uM GlcN6P (s⁻¹): "1e-05"
- Mutation Notation: "G35C C50G"
  Result Operator: "="
  self-cleavage kobs at 10000 uM GlcN6P (s⁻¹): 0.000205
- Mutation Notation: "G9A A36C U49C"
  Result Operator: "<"
  self-cleavage kobs at 10000 uM GlcN6P (s⁻¹): "1e-05"
- Mutation Notation: "A33G G59C"
  Result Operator: "<"
  self-cleavage kobs at 10000 uM GlcN6P (s⁻¹): "1e-05"
- Mutation Notation: "C34A U45C"
  Result Operator: "<"
  self-cleavage kobs at 10000 uM GlcN6P (s⁻¹): "1e-05"
- Mutation Notation: "A15U U56G"
  Result Operator: "="
  self-cleavage kobs at 10000 uM GlcN6P (s⁻¹): 0.00565
- Mutation Notation: "C10U G29C G35A G44U C50A U55C A64U"
  Result Operator: "<"
  self-cleavage kobs at 10000 uM GlcN6P (s⁻¹): "1e-05"
- Mutation Notation: "G40A A42G U46A"
  Result Operator: "="
  self-cleavage kobs at 10000 uM GlcN6P (s⁻¹): 0.00096
- Mutation Notation: "U55G A64U"
  Result Operator: "="
  self-cleavage kobs at 10000 uM GlcN6P (s⁻¹): 0.00011
- Mutation Notation: "A12U G38C A39C"
  Result Operator: "<"
  self-cleavage kobs at 10000 uM GlcN6P (s⁻¹): "1e-05"
- Mutation Notation: "C50G G62C C70A"
  Result Operator: "="
  self-cleavage kobs at 10000 uM GlcN6P (s⁻¹): 0.000153
